Entries annotated with measured pKi
# assay-system: UniProt Q12908
# Sequence (Q12908 1-348): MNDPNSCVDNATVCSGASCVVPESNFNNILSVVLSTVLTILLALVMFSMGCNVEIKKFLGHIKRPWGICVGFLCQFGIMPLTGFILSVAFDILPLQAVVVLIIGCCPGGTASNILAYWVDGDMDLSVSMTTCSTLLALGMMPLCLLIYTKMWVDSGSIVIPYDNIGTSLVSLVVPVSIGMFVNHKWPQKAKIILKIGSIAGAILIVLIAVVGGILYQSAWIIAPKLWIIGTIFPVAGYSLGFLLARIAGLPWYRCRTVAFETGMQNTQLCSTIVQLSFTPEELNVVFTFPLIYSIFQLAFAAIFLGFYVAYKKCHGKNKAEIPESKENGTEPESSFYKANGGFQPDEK
# procedure-text: ASBT cis-inhibition of taurocholate uptake in ASBT-MDCK cells
# run-conditions: Ki, inhibitor concentration range 0-5 μM; mean±S.E.
pKi: −log10 of the molar value.
recorded-metric: pKi

* CC(C)OC(=O)CCC/C=C\C[C@@H]1[C@@H](CC[C@@H](O)CCc2ccccc2)[C@H](O)C[C@@H]1O | 4.71
* COC(=O)C1=C(C)NC(C)=C(C(=O)OC(C)C)C1c1cccc2nonc12 (stereo not drawn) | 4.76
* O=C(O)C[C@H](O)C[C@H](O)/C=C/c1c(C2CC2)nc2ccccc2c1-c1ccc(F)cc1 | 4.55
